# systemTested: HA-ERα L536R (Homo sapiens, UniProt P03372, L536R)
# Construct: HA; expressed in transfected cells
# procedureText: Luciferase assay, overexpressed ER (3×-ERE-TATA-Luciferase reporter)
# Type: cell-based
# conditionSet: compound concentration 1 μM, 24 hours
measuredParameter: inhibition at 1 µM (%)
Numeric only. Scale: %

>>> reading("O=C(NCCCCOc1ccc(C(=C2C3CC4CC(C3)CC2C4)c2ccc(O)cc2)cc1)[C@H]1CC[C@H](C(F)(F)F)CC1")
82
>>> reading("O=C(NCCCCOc1ccc(C(=C2CCCCC2)c2ccc(O)cc2)cc1)[C@H]1CC[C@H](C(F)(F)F)CC1")
36
>>> reading("O=C(NCCCCOc1ccc(Oc2c(-c3ccc(O)cc3)sc3cc(O)ccc23)cc1)C1CCC1")
43

Next, consider the following compound.
# inhibition at 1 µM of `O=C(NCCCCOc1ccc(C(=C2C3CC4CC(C3)CC2C4)c2ccc(O)cc2)cc1)[C@H]1C[C@@H]2C=C[C@H]1C2` = 89

###

# systemTested: HA-ERα wild type (Homo sapiens)
# Construct: HA; expressed in transfected cells
# Sequence (P03372 1-595): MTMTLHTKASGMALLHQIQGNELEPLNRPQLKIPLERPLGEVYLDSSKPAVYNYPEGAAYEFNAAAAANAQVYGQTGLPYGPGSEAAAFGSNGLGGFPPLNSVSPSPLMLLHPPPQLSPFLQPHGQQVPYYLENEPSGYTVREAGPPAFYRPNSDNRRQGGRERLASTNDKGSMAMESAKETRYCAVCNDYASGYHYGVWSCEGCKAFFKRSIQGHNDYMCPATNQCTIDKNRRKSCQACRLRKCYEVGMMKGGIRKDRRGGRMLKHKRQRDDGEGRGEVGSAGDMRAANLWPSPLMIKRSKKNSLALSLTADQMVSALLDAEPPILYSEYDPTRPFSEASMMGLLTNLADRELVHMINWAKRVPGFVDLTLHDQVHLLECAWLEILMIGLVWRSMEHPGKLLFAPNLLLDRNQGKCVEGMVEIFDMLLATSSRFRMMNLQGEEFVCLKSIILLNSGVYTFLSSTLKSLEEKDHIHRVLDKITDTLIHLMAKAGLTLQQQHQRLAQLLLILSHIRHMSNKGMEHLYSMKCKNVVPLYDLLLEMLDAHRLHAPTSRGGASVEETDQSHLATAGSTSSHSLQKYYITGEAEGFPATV
# procedureText: Luciferase assay, overexpressed ER (3×-ERE-TATA-Luciferase reporter)
# Assay type: cell-based
# conditionSet: compound concentration 1 μM, 24 hours; read-out: Overexpressed ER (% Inhibition) WT
measuredParameter: inhibition at 1 µM (%)
Numeric only. Scale: %

As a guide, the following entries are already answered.
>>> reading("O=C(NCCCCOc1ccc(C(=C2C3CC4CC(C3)CC2C4)c2ccc(O)cc2)cc1)c1ccc(C(F)(F)F)cc1")
79
>>> reading("O=C(NCCCCOc1ccc(C(=C2CCCCC2)c2ccc(O)cc2)cc1)C1CCC1")
-83
>>> reading("O=C(NCCCCOc1ccc(C(=C2C3CC4CC(C3)CC2C4)c2ccc(O)cc2)cc1)C1CCCCCC1")
90
>>> reading("CC12CC3CC(C)(C1)CC(C(=O)NCCCCOc1ccc(C(=C4C5CC6CC(C5)CC4C6)c4ccc(O)cc4)cc1)(C3)C2")
83
>>> reading("O=C(NCCCCOc1ccc(C(=C2C3CC4CC(C3)CC2C4)c2ccc(O)cc2)cc1)C12CC3CC(CC(C3)C1)C2")
84

# inhibition at 1 µM of O=C1CCC(N2C(=O)c3cccc(OCCOCCOc4ccc(C(=C5C6CC7CC(C6)CC5C7)c5ccc(O)cc5)cc4)c3C2=O)C(=O)N1 (centres unmarked) = 82

# inhibition at 1 µM of `O=C(NCCCCOc1ccc(C(=C2CCCCC2)c2ccc(O)cc2)cc1)C1CCCCC1` = -25

# inhibition at 1 µM of `O=C(NCCCCOc1ccc(C(=C2C3CC4CC(C3)CC2C4)c2ccc(O)cc2)cc1)C1CCC1` = 84

# inhibition at 1 µM of O=C1CCC(N2C(=O)c3cccc(OCCOCCOCCOc4ccc(C(=C5C6CC7CC(C6)CC5C7)c5ccc(O)cc5)cc4)c3C2=O)C(=O)N1 (centres unmarked) = 80

# inhibition at 1 µM of `O=C(NCCCCOc1ccc(Oc2c(-c3ccc(O)cc3)sc3cc(O)ccc23)cc1)[C@H]1CC[C@H](C(F)(F)F)CC1` = 96

# inhibition at 1 µM of `O=C(NCCCCOc1ccc(C(=C2CCCCC2)c2ccc(O)cc2)cc1)[C@H]1CC[C@H](C(F)(F)F)CC1` = 77

Value source: patent US11667621B2
